# assay summary: NCI Yeast Anticancer Drug Screen. Data for the mlh1 rad18 strain (AID 175)
# conditions: S. cerevisiae mlh1 rad18 strain growth inhibition; at 50.0 µM; active compounds read high
About 79,000 compounds went through this panel and 15% of them were active in at least one assay; those are over-represented in the sample as a whole.
// values below are reported growth inhibition
// return numeric value only (unit: %, not printed)

Example molecules with recorded growth inhibition:
• COC(=O)CC(=O)C[P+](c1ccccc1)(c1ccccc1)c1ccccc1 = 5.4
• O=C(NC12CC3CC(CC(C3)C1)C2)C(O)C(O)C(O)C(O)CO (stereo unspecified) = 2.65

QUERY: Quick one: growth inhibition of O=C(O)CN(CC(=O)O)Cc1ccccc1 ?
RESULT: 4.2

###

Recorded measurements of growth inhibition, one per entry
# assay summary: NCI Yeast Anticancer Drug Screen. Data for the mlh1 rad18 strain (AID 175)
# conditions: S. cerevisiae mlh1 rad18 strain growth inhibition; at 50.0 µM; active compounds read high
This is part of a sample that, as a whole, favours compounds with a hit. Of some 79,000 tested, about 15% had one in any assay. Activity calls are given as the source filed them. No stated cut-off is given here; in the data, active means growth inhibition above about 70%; inactive means the rest.

* CCOC(=O)C(c1ccccc1)c1ccccc1 | -12.2% (inactive)

QUERY: Recorded growth inhibition of NNC(=O)c1ccc2ccccc2c1O , please.
RESULT: 49% (inactive)

QUERY: Recorded growth inhibition for CCc1cccc(C(C)CC)c1NC(=O)CC1C(=O)Nc2ccccc2S1=O (stereo not drawn) , please?
RESULT: 15.2% (inactive)

###

# assay summary: NCI Yeast Anticancer Drug Screen. Data for the rad50 strain (AID 155);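 further: 0% = growth of vehicle-only cultures of the same strain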
# conditions: S. cerevisiae rad50 strain growth inhibition; at 50.0 µM; active compounds read high
About 79,000 compounds went through this panel and 15% of them were active in at least one assay; those are over-represented in the sample as a whole.
parameter: growth inhibition (%)
// return numeric value only (unit: %, not printed)

Reference set, count: 6
* CC(O)CN(CC(C)O)S(=O)(=O)c1ccc(N)cc1 (centres undefined) | -9.15
* Cc1ccc(C(N)=Nc2ccccc2)cc1 | 0.65
* COc1cc(OC)c(C2c3cc4c(cc3OC(N3CCCC3)C2C)OCO4)c(OC)c1 (centres undefined) | 17.1
* CCC1OC(=O)CC(O)C(C)C(OC2OC(C)C(O)C(N(C)C)C2O)C(CC=O)CC(C)C(=O)/C=C/C2(C)OC2C1C (centres undefined) | -13.4
* OC(CBr)c1cc(-c2ccc(Cl)cc2)nc2c(-c3ccccc3)cccc12 (centres undefined) | -3
* O=C(O)C(c1ccccc1)C1(O)CC2CCC1C2 (centres undefined) | -38

QUERY: I'd like to know its growth inhibition. The compound in question is NC(=O)c1n[nH]c(C2OC(CO)C(O)C2O)n1 (centres undefined)
RESULT: -1.5

QUERY: Recorded growth inhibition for CC(=O)OC(C)C(C)Br (centres undefined) , please?
RESULT: 9.75

QUERY: Request the reported growth inhibition associated with C=CC1=C(C)C2=NC1=CC1=NC(=CC3=C(C)C4=C(O)CC(=C5NC(=C2)C(C)C5CCC(=O)OC)C4=N3)C(CC)=C1C (centres undefined)
RESULT: 8.85

QUERY: What value of growth inhibition has been reported for the following compound? C[N+]1(C)CCCC(O)(C(=O)c2ccccc2)C1 (centres undefined)
RESULT: -5.2

QUERY: Give the measured growth inhibition of COc1ccc(COCC[C@H](C)OC2OC(CO)C(O)C(O)C2O)cc1 (some centres undefined) .
RESULT: 13.9

QUERY: Consider the compound C[C@H]1C[C@](C)(CO)Oc2oc3ccccc3c(=O)c21 and give its measured growth inhibition.
RESULT: 4.5

QUERY: What measured growth inhibition goes with ClC1C2c3ccccc3C1C1C2C2(c3ccccc3)OC1(c1ccccc1)c1ccccc12 (centres undefined) ?
RESULT: 12.7

QUERY: Return reported growth inhibition; argument: O=P(O)(O)c1ccc(Cl)cc1
RESULT: -1.8

QUERY: What value of growth inhibition has been recorded for this entry: CN(c1ccccc1Cl)S(=O)(=O)c1ccccc1[N+](=O)[O-]
RESULT: 5.15

QUERY: Which growth inhibition value belongs to COCC(N=CN1CCCc2ccccc2[C@@H]1CCCCl)C(C)(C)C (some centres undefined) ?
RESULT: -6.6

QUERY: Record request: growth inhibition value, item Cc1ccc(C(=N)c2ccccc2Cc2ccccc2)cc1
RESULT: -14.4

QUERY: I have this compound here, CN1C(=O)CC2(C)c3cc(O)ccc3N(C)C12 (centres undefined) , and I need its recorded growth inhibition.
RESULT: 53.6

QUERY: Fill in: growth inhibition of COC1CCC2(C)C3CCC4C(=CCC5C(C)(C)C(OC(C)=O)CCC45C)CC3(C)CCC2C1(C)C (centres undefined) is ___
RESULT: 13.1
